tested on: CU-ACC2; assay: area under concentration-response curve (viability) (AUC (a.u.)); higher = less active; conditions: 48 h
Kindly supply the reported area under concentration-response curve values for the records listed here.
Give bare numbers.

Below: 5 compounds and their reported area under concentration-response curve.
CN[C@@H]1[C@H](O[C@H]2[C@H](O[C@@H]3[C@@H](O)[C@H](O)[C@@H](NC(=N)N)[C@H](O)[C@H]3NC(=N)N)O[C@@H](C)[C@]2(O)C=O)O[C@@H](CO)[C@H](O)[C@H]1O = 606
CC1CC2=CC=CC=C2N1C(=O)C\C3=N\C(=O)\C=C(/N3)N4CCOCC4 (stereo not drawn) = 579
CN(CC#C)C/C1=C/C2=CC=CC=C2OC3=CC=CC=C13 = 524
CC1=CC=C(C=C1)\C2=N\C3=CC=C(Cl)C=C3OC2 = 613
COc1ccc2[nH]c(C(=O)N3CCC(CC(C)(C)O)CC3)cc2c1 = 609

Fill in area under concentration-response curve for each of the 2 compounds listed.
1. CCCCN(CCCC)CCC(O)c1cc2c(Cl)cc(Cl)cc2c2cc(C(F)(F)F)ccc12.Cl (stereo not drawn)
2. COCCOC1=CN=C2\C=C/N([C@H](C)C3=NN=C4[N]3C=C(C=C4F)C5=C[N](C)N=C5)C(=O)C2=C1

1: 615; 2: 338

Noted area under concentration-response curve for COC1=CC=CC2=C1C(=NC(=N2)C3=CC=CS3)NN4C(=O)\C=C(C)/C4=O , tested on CU-ACC2: 489

----------
Kindly supply the reported area under concentration-response curve values for the records listed here.
tested on: CU-ACC1; test: area under concentration-response curve (viability) (AUC (a.u.)); higher = less active; settings: 48 h

Below: 3 compounds and their reported area under concentration-response curve.
COC1=C(F)C=C\2C(=C1)\N=C/3NNC(=C3\N=C2C4=CC=CC=C4Cl)/C = 538
O=C(/C=C/c1ccc(/C=C/C(=O)Nc2ccc(C3=NCCN3)cc2)cc1)Nc1ccc(C2=NCCN2)cc1 = 635
C\C1=C(\[C@@H](OC2=C1C=CC(=C2)O)C3=CC=C(OCCN4CCCCC4)C=C3)C5=CC=C(O)C=C5 = 296

Fill in area under concentration-response curve for each of the 5 compounds listed.
1. CC1CCN(c2cc(N3CCN(C)CC3)ccc2NC(=O)c2cc(C#N)c[nH]2)CC1
2. COc1cc2c(cc1OC(C)C)[C@H](c1ccc(Cl)cc1)N(c1ccc(N(C)C[C@H]3CC[C@H](N4CCN(C)C(=O)C4)CC3)cc1)C(=O)C2
3. CCCC(CCC)C(=O)[O-]
4. CCCCC[C@H](O)/C=C/[C@H]1[C@H](O)CC(=O)[C@@H]1C/C=C\CCCC(=O)O
5. NC(=O)c1cnc(-c2ccc(C3(N)CCC3)cc2)c(-c2ccccc2)c1

1. 542
2. 427
3. 445
4. 485
5. 537

----------
system: CU-ACC1; experiment: area under concentration-response curve (viability) (AUC (a.u.)); higher = less active; settings: 48 h
Could you label it 1 (yes) if measured area under concentration-response curve is 500 or higher, and 0 (no) otherwise?

CN1N(C2=CC=CC=C2)C(=O)C(=C1/C3=CC=CC=C3)/C(=O)C4=CC=C(C)C(=C4N)C5=CC=C6N=C(C)C=CC6=C5 = 1 (yes)

Consider now this further compound.
Has CC(C)C[C@@H](C(=O)N[C@H](C(=O)OC1CCCC1)c1ccccc1)[C@H](O)C(=O)NO a recorded area under concentration-response curve greater than or equal to 500?
0 (no)

----------
tested on: NCI-H295R; test: area under concentration-response curve (viability) (AUC (a.u.)); higher = less active; conditions: 48 h
QUANTITY: area under concentration-response curve

CCC(=O)N1CCN(CC1)C2=C(C=C(C=C2)N3C(=O)\C=C/C4=C3C5=CC(=CC=C5N=C4)C6=CN=C7C=CC=CC7=C6)C(F)(F)F = 326
O=C(c1ccc(Nc2nccc(-c3cc4ccccc4s3)n2)cc1)N1CCC(N2CCCC2)CC1 = 462

Field: next molecule
Noted area under concentration-response curve for CCC[C@H](NC(=O)[C@@H]1[C@H]2CCC[C@H]2CN1C(=O)[C@@H](NC(=O)[C@@H](NC(=O)c1cnccn1)C1CCCCC1)C(C)(C)C)C(=O)C(=O)NC1CC1 , tested on NCI-H295R: 285

----------
system: CU-ACC1; assay: area under concentration-response curve (viability) (AUC (a.u.)); higher = less active; conditions: 48 h
QUANTITY: area under concentration-response curve
Numbers only.

Below: 4 compounds and their reported area under concentration-response curve.
CC(=O)OCC(=O)[C@@]1(O)CC[C@H]2[C@@H]3CCC/4=C/C(=O)CC[C@]4(C)[C@H]3C(=O)C[C@]12C = 531
COc1nccc(-c2c(-c3ccc(F)cc3)ncn2C2CCNCC2)n1 = 429
Nc1cccc(-c2cc3c(Oc4cccc(O)c4)ncnc3[nH]2)c1 = 524
C[C@@H](N)[C@H]1CC[C@H](C(=O)Nc2ccncc2)CC1 = 472

Fill in area under concentration-response curve for each of the 3 compounds listed.
1. Cc1ccc(F)c(NC(=O)Nc2ccc(-c3cccc4[nH]nc(N)c34)cc2)c1
2. Cc1cc(Nc2cc(N3CCN(C)CC3)nc(Sc3ccc(NC(=O)C4CC4)cc3)n2)[nH]n1
3. N#Cc1cc2cc(CN3CCC(Nc4ncnc5sc(CC(F)(F)F)cc45)CC3)c(O)cc2n1Cc1cn[nH]c1

[497, 534, 527]

Noted area under concentration-response curve for COC(C)(C)CCn1nc(Nc2c(C)cccc2C)c2cnc(Nc3ccc(OCCN4CCCC4)c(F)c3)nc21 , tested on CU-ACC1: 506

----------
system: CU-ACC1; assay: area under concentration-response curve (viability) (AUC (a.u.)); higher = less active; conditions: 48 h
QUANTITY: area under concentration-response curve
One number for each entry.

C[C@H](O)[C@H]1[C@@H]2[C@H](C)C(=C(\N2C1=O)C(O)=O)/S[C@@H]3CN[C@H](CN[S+](N)([O-])=O)C3 = 516
CN\1C(=O)/C(=C(\N=C1NC[C@@H](N)CC2=CC=CC=C2)C3=CC=NC=C3)C4=CC5=C(C=CC=C5)C=C4 = 484
O=C(/C=C\n1cnc(-c2cc(C(F)(F)F)cc(C(F)(F)F)c2)n1)N1CC(F)(F)C1 = 448

Fill in area under concentration-response curve for each of the 6 molecules listed.
1. C[C@@H]1CN(Cc2ccc(F)cc2)[C@@H](C)CN1C(=O)c1cc2c(C(=O)C(=O)N(C)C)cn(C)c2cc1Cl
2. CC(NC1=NC=NC2=C1[NH]C=N2)\C3=C\C4=C(C(=CC=C4)Cl)C(=O)N3C5=CC=CC=C5 (stereo unspecified)
3. C[C@@H]1C[C@@H]([C@H](O)CC2CC(=O)NC(=O)C2)C(=O)[C@@H](C)C1
4. CN(C)Cc1c(C(=O)NCCOc2ccc(C(=O)NO)cc2)oc2ccccc12
5. OC[C@H]1O[C@H](C[C@@H]1O)N2/C=C(C(=O)NC2=O)/C(F)(F)F
6. COc1ccc(C[C@@H](C)[C@@H](C)Cc2ccc(OC)c(OC)c2)cc1OC

1: 515; 2: 432; 3: 345; 4: 412; 5: 538; 6: 452

----------
system: NCI-H295R; experiment: AC50 viability; higher = less potent; details: 48 h
QUANTITY: AC50 viability (µM)
Give bare numbers, in µM.

COc1ccc(CCN(C)CCCOc2ccc([S+](=O)([O-])c3c(C(C)C)c4ccccc4n3C)cc2)cc1OC = 13.2
Nc1nccc(-c2ccc3noc(-c4ccc(Cl)cc4)c3c2)n1 = 0.263
C[S+](=O)([O-])N1CCN(Cc2cc3nc(-c4cccc5[nH]ncc45)nc(N4CCOCC4)c3s2)CC1 = 0.661

Field: next compound
Entry under test: CN1CCN(C2CCN(C(=O)Nc3cc(Oc4ccc(NC(=O)C5(C(=O)Nc6ccc(F)cc6)CC5)c(F)c4)ccn3)CC2)CC1 . Its AC50 viability was 20.9

----------
tested on: CU-ACC2; assay: area under concentration-response curve (viability) (AUC (a.u.)); higher = less active; conditions: 48 h
Kindly supply the reported area under concentration-response curve values for the records listed here.
Give bare numbers.

Below: 2 molecules and their reported area under concentration-response curve.
Nc1ccccc1NC(=O)c1ccc(CNC(=O)OCc2cccnc2)cc1 = 523
COc1cc2nccc(Oc3ccc(NC(=O)Nc4cc(C)on4)c(Cl)c3)c2cc1OC = 516

Fill in area under concentration-response curve for each of the 3 molecules listed.
1. CC(C)Oc1cc(Nc2nc(N[C@@H](C)c3ccc(F)cn3)ncc2Cl)n[nH]1
2. CCCn1c(=O)c2[nH]c(-c3cnn(Cc4cccc(C(F)(F)F)c4)c3)nc2n(CC)c1=O
3. O=C(O)CNC(=O)c1nc(Cl)c2ccccc2c1O

1. 394
2. 633
3. 604

Fill in area under concentration-response curve for each of the 3 molecules listed.
1. O=C(O)c1cnn(-c2nc3cc(Cl)c(OC(F)(F)F)cc3[nH]2)c1
2. O=C([C@@H](Cc1cccc(C(F)(F)F)c1)N[S+](=O)([O-])c1cc(F)c2c(c1)CCNC2)N1CCCC1
3. CC[C@H](NC(=O)[C@H](C[S+](=O)([O-])CC1CC1)N[C@@H](c1ccc(F)cc1)C(F)(F)F)C(=O)C(=O)NC1CC1

605
515
510
